Test system: P388 leukemia ip, CD2F1 mice, survival T/C
PROCEDURE_SUMMARY: NCI In Vivo Anticancer Drug Screen. Data for tumor model P388 Leukemia (intraperitoneal) in CD2F1 (CDF1) mice
PROTOCOL_CONDITIONS: endpoint: median survival time; dose: 100.0 mg/kg/injection; schedule: Q01DX005 (ip); vehicle: Klucel (hydroxypropylcellulose) (HPC); higher = longer survival
Method: The antitumor activity of compounds was measured in mice bearing transplantable tumors. Survival or tumor size were measured and the results are expressed as the measurement made in the treated group (T) divided by the measurement made in the vehicle treated control group (C). The tumor model used in this assay is P388 Leukemia (intraperitoneal) in CD2F1 (CDF1) mice
Toxic doses and inconclusive results are not listed.
ASSAY_ENDPOINT: T/C

# count of solved cases: 2
>  <COMPOUND>
CCCCCCNC(N)=NCCCC(N)C(=O)O (stereo not drawn)

>  <TGT>
P388 leukemia ip, CD2F1 mice, survival T/C

>  <ASSAY_ENDPOINT>
T/C

>  <OBS_VALUE>
102 % of control

$$$$
>  <COMPOUND>
CCCCCCOc1cc2c(cc1C(C)c1ccc(OC)cc1)OCO2 (stereo not drawn)

>  <TGT>
P388 leukemia ip, CD2F1 mice, survival T/C

>  <ASSAY_ENDPOINT>
T/C

>  <OBS_VALUE>
109 % of control

$$$$

With those in mind, consider the next compound.
Req: For the compound [NH-][n+]1c2c(nc3ccccc31)-c1cccc3cccc-2c13 , what T/C is on record?
Resp: 112 % of control

###

Below, each of the compounds is paired with its reported T/C value.
Tested on: P388 leukemia ip, CD2F1 mice, survival T/C
PROCEDURE_SUMMARY: NCI In Vivo Anticancer Drug Screen. Data for tumor model P388 Leukemia (intraperitoneal) in CD2F1 (CDF1) mice
PROTOCOL_CONDITIONS: endpoint: median survival time; dose: 120.0 mg/kg/injection; schedule: Q01DX005 (ip); vehicle: saline with Tween-80; higher = longer survival
Toxic doses and inconclusive results are not listed.

>  <SMILES_REPR>
O=C(C(=O)c1cccc(C(=O)C(=O)c2ccccc2)c1)c1ccccc1

>  <TGT>
P388 leukemia ip, CD2F1 mice, survival T/C

>  <OBS_VALUE>
96 % of control

$$$$
>  <SMILES_REPR>
[Se]=[Re]=[Se]

>  <TGT>
P388 leukemia ip, CD2F1 mice, survival T/C

>  <OBS_VALUE>
98 % of control

$$$$
>  <SMILES_REPR>
CCCCCCCCCCC(Nc1nncs1)Nc1nncs1

>  <TGT>
P388 leukemia ip, CD2F1 mice, survival T/C

>  <OBS_VALUE>
95 % of control

$$$$

With those in mind, consider the next compound.
Req: For the compound C[CH2][Ge]([CH2]C)[O][Ge]([CH2]C)[CH2]C.c1cc[c]([Ge]([c]2ccccc2)[c]2ccccc2)cc1.c1cc[c]([Ge]([c]2ccccc2)[c]2ccccc2)cc1 , what T/C is on record?
Resp: 98 % of control
